Parameter: pEC50. Scope: all listed entries.
- Target under test: Metabotropic glutamate receptor 5 (Rattus norvegicus)
- Protocol description: Modulation of rat mGlu5 receptor assessed as calcium mobilization by cell based fluorescence assay
- Format: functional
pEC50: −log10 of the molar value.

Before answering, review these 3 worked examples.
C[C@@H]1CN(c2ccc(F)cc2)C(=O)c2cc(COc3ccc(OC(F)(F)F)cc3)nn21 = < 4.52
C[C@@H]1CN(c2ccccn2)C(=O)c2cc(COc3ccc(Cl)cn3)nn21 = < 4.52
C[C@@H]1CN(c2cncc(C#N)c2)C(=O)c2cc(COc3ccc(Cl)cn3)nn21 = < 4.52

Inquiry: Would you kindly share the measured pEC50 for Cc1cccc(N2C[C@@H](C)n3nc(COc4ccc(F)cn4)cc3C2=O)c1 ?
Reply text: < 5.00

Inquiry: Quick one: pEC50 for Cc1ccnc(OCc2cc3n(n2)[C@H](C)CN(c2ccc(F)cc2)C3=O)c1 ?
Reply text: < 5.00

Inquiry: Please give the measured pEC50 for this compound: C[C@@H]1CN(c2ccc(F)cn2)C(=O)c2cc(COc3ccc(Cl)cn3)nn21
Reply text: < 5.00

====

Below, each entry is listed with its recorded pEC50.
- Target under test: Metabotropic glutamate receptor 5 (Rattus norvegicus, UniProt P31424)
- Sequence (P31424 whole entry): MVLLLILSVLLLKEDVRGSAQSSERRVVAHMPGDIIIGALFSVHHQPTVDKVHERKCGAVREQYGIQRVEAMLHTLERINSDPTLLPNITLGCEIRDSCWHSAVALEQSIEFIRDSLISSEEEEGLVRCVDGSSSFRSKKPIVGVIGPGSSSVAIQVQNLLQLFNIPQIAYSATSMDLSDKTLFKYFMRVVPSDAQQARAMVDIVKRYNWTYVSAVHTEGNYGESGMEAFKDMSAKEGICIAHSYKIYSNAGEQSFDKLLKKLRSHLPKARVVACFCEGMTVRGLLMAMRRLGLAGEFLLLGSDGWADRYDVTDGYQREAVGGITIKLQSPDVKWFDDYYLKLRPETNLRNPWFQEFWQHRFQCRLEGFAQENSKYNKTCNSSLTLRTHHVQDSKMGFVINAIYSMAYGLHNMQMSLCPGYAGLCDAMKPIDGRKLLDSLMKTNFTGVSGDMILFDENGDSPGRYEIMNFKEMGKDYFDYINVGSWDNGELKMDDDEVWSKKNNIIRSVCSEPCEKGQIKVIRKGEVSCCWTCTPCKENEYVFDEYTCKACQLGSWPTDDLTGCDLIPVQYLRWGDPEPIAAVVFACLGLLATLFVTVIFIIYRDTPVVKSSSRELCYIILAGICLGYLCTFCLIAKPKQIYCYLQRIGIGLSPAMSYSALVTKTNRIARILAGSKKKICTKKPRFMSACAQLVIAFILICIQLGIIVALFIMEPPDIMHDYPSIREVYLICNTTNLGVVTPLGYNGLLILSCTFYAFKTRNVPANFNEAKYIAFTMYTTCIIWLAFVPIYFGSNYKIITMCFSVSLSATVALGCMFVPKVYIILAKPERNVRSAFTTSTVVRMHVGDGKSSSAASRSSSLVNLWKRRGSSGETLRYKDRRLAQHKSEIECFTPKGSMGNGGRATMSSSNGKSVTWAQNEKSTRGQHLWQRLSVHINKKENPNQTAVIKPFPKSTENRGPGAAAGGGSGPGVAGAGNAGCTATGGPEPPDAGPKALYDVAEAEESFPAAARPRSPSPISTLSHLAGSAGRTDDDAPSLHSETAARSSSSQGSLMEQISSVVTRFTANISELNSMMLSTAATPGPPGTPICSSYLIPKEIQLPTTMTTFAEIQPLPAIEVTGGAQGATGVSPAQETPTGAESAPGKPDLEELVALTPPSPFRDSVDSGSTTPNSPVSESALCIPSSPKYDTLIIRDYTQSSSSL
- Protocol description: Modulation of rat mGlu5 receptor assessed as calcium mobilization by cell based fluorescence assay
pEC50: −log10 of the molar value.

Consider the reported pEC50 for these compounds:
COc1cccnc1OCc1cc2n(n1)[C@H](C)CN(c1ccc(F)cc1)C2=O = < 4.52
C[C@@H]1CN(c2cccnc2F)C(=O)c2cc(COc3ccc(Cl)cn3)nn21 = < 4.52
Cc1ccccc1N1C[C@@H](C)n2nc(COc3ccc(F)cn3)cc2C1=O = < 5.00
CCOc1ccc(OCc2cc3n(n2)[C@H](C)CN(c2ccc(F)cc2)C3=O)cc1 = < 4.52
C[C@@H]1CN(c2ccc(F)nc2)C(=O)c2cc(COc3ccc(Cl)cn3)nn21 = < 5.00
Cc1ccc(N2C[C@@H](C)n3nc(COc4ccc(Cl)cn4)cc3C2=O)cc1 = < 5.00
C[C@@H]1CN(c2cc(F)cc(F)c2)C(=O)c2cc(COc3ccc(Cl)cn3)nn21 = < 5.00
Cc1ccc(N2C[C@@H](C)n3nc(COc4ccc(F)cn4)cc3C2=O)cc1 = < 5.00

Turning now to a further compound:
Inquiry: Enter reported pEC50 observed with Metabotropic glutamate receptor 5 (Rattus norvegicus, UniProt P31424) for C[C@@H]1CN(c2ccccc2F)C(=O)c2cc(COc3ccc(F)cn3)nn21
Reply text: < 5.00
